Method: Toxicity liver stage against HepG2, at 10uM
Type: cell-based
Set-up: test concentration 10 uM, cell line HepG2-A16-CD81EGFP
Details: human, HepG2-A16-CD81EGFP cells; read-out: INHIBITION
Measured cytotoxicity at 10 µM, listed per entry for reference.
Answer with a number only, understood to be in %.

molecule="c1cncc(-c2noc(CNC3CCCN(c4cccnn4)C3)n2)c1 (centres undefined)" value_units=% numeric_result=3.26
molecule=O=C1[C@H]2CN(S(=O)(=O)c3ccccc3)C[C@H]2CN1Cc1cccnc1 value_units=% numeric_result=-0.0837
molecule="N#Cc1cccnc1NCCNC(=O)N1CCCC(C(F)(F)F)C1 (centres undefined)" value_units=% numeric_result=-3.76
molecule="Cc1cc(C)c2c(c1)C(NC(=O)CSc1nnc[nH]1)CCO2 (centres undefined)" value_units=% numeric_result=-3.91
molecule=Cc1cc(C(=O)N2C[C@@H]3CC[C@H]2CN(Cc2ccccn2)C3)nc(N)n1 value_units=% numeric_result=-0.0925
molecule="COc1cc(OC)c(C2Nc3cc(Cl)ccc3C3=NCCN32)cc1OC (centres undefined)" value_units=% numeric_result=-3.14
molecule="O=C(NCCc1cc(F)ccc1F)NCC(O)C1CC1 (centres undefined)" value_units=% numeric_result=-2.99
molecule="CNS(=O)(=O)CCCN1CCCC1c1noc(C2CC2)n1 (centres undefined)" value_units=% numeric_result=-16.5
molecule=COC(=O)c1ccoc1CN(C)Cc1ccccc1 value_units=% numeric_result=3.3
molecule=CCOC(=O)CNC(=O)c1cc2n(n1)CCCO2 value_units=% numeric_result=1.43

Sample Cn1cc(C2CCCN2Cc2csc(Cc3ccccc3)n2)cn1 (centres undefined) ; cytotoxicity at 10 µM observed: -1.19

Sample O=S(=O)(NCCCn1cncn1)c1ccc2c(c1)CCCC2 ; cytotoxicity at 10 µM observed: 4.16
